Measured values drawn from ChEMBL document CHEMBL1221342 for this set.

Tested on: IGROV-1
ASSAY NAME: Growth inhibition of human IGROV1 cells after 48 hrs by SRB assay
Format: functional
RUN CONDITIONS: IGROV-1, 48 h
ATTRIBUTE MEASURED: GI50 (µM)
Respond numerically; units are µM and should not be typed.

// below: answered molecules
{"MOLECULE": "COc1ccc(C2CC(c3cc(OC)c(OC)c(OC)c3)=NN2)cc1 (centres undefined)", "GI50 / µM": 6.31}
{"MOLECULE": "COc1cc(C2CC(c3ccc(N(C)C)cc3)=NN2C(C)=O)cc(OC)c1OC (centres undefined)", "GI50 / µM": 2.51}
{"MOLECULE": "CCN(CC)c1ccc(C2=NN(C(C)=O)C(c3cc(OC)c(OC)c(OC)c3)C2)cc1 (centres undefined)", "GI50 / µM": 0.794}

Kindly review the next molecule as well.
[ask] For COc1cc(C2CC(c3cccc(Br)c3)=NN2C(C)=O)cc(OC)c1OC (centres undefined) , what is its reported GI50?
[reply] 2

* * *

Tested on: COLO 205
ASSAY NAME: Growth inhibition of human COLO205 cells after 48 hrs by SRB assay
Format: functional
RUN CONDITIONS: COLO 205, 48 h, read-out: pTGI (converted)
Parameter log10 of TGI: see the listing below.
# log10 transformed; quantity=TGI; unit=µM

{"MOLECULE": "COc1cc(C2=NN(C(C)=O)C(c3cc(OC)c(OC)c(OC)c3)C2)ccc1O (centres undefined)", "SUBJECT OF TEST": "COLO 205", "log10 of TGI": -0.10}
{"MOLECULE": "COc1ccc(C2CC(c3cc(OC)c(OC)c(OC)c3)=NN2)cc1 (centres undefined)", "SUBJECT OF TEST": "COLO 205", "log10 of TGI": 1.50}
{"MOLECULE": "CCN(CC)c1ccc(C2=NN(C(C)=O)C(c3cc(OC)c(OC)c(OC)c3)C2)cc1 (centres undefined)", "SUBJECT OF TEST": "COLO 205", "log10 of TGI": 0.10}
{"MOLECULE": "CCN(CC)c1ccc(C2CC(c3cc(OC)c(OC)c(OC)c3)=NN2)cc1 (centres undefined)", "SUBJECT OF TEST": "COLO 205", "log10 of TGI": 0.20}
{"MOLECULE": "COc1cc(C2CC(c3ccc(N(C)C)cc3)=NN2C(C)=O)cc(OC)c1OC (centres undefined)", "SUBJECT OF TEST": "COLO 205", "log10 of TGI": 1.20}

[ask] For COc1cc(C2CC(c3cccc(Br)c3)=NN2C(C)=O)cc(OC)c1OC (centres undefined) , what is its reported log10 of TGI?
[reply] -0.20

[ask] Repeat with COc1cc(C2CC(c3cccc(O)c3)=NN2C(C)=O)cc(OC)c1OC (centres undefined)
[reply] 1.00

[ask] Repeat with COc1cc(C2=NNC(c3ccc(N(C)C)cc3)C2)cc(OC)c1OC (centres undefined)
[reply] 1.10

[ask] Repeat with COc1ccc(/C=C\c2cc(OC)c(OC)c(OC)c2)cc1O [COMBRETASTATIN A4]
[reply] 1.70

* * *

Test system: HT-29
ASSAY NAME: Growth inhibition of human HT-29 cells after 48 hrs by SRB assay
Assay type: functional
RUN CONDITIONS: HT-29, 48 h
ATTRIBUTE MEASURED: GI50 (nM)
Respond numerically; units are nM and should not be typed.

{"COMPOUND": "COc1ccc(/C=C\\c2cc(OC)c(OC)c(OC)c2)cc1O", "GI50 [nM]": 631}
{"COMPOUND": "COc1cc(C2=NN(C(C)=O)C(c3cc(OC)c(OC)c(OC)c3)C2)ccc1O (stereo not drawn)", "GI50 [nM]": 316}
{"COMPOUND": "COc1cc(C2=NNC(c3ccc(N(C)C)cc3)C2)cc(OC)c1OC (stereo not drawn)", "GI50 [nM]": 631}
{"COMPOUND": "CCN(CC)c1ccc(C2=NN(C(C)=O)C(c3cc(OC)c(OC)c(OC)c3)C2)cc1 (stereo not drawn)", "GI50 [nM]": 398}
{"COMPOUND": "COc1cc(C2CC(c3ccc(N(C)C)cc3)=NN2C(C)=O)cc(OC)c1OC (stereo not drawn)", "GI50 [nM]": 398}

[ask] For COc1ccc(C2CC(c3cc(OC)c(OC)c(OC)c3)=NN2)cc1 (stereo not drawn) , what is its reported GI50?
[reply] 3980

[ask] Repeat with COc1cc(C2CC(c3cccc(O)c3)=NN2C(C)=O)cc(OC)c1OC (stereo not drawn)
[reply] 3160

[ask] Repeat with CCN(CC)c1ccc(C2CC(c3cc(OC)c(OC)c(OC)c3)=NN2)cc1 (stereo not drawn)
[reply] 316

* * *

System: MCF7
ASSAY NAME: Growth inhibition of human MCF7 cells after 48 hrs by SRB assay
Format: functional
RUN CONDITIONS: MCF7, 48 h
Parameter log10(GI50): see the listing below.
# log10 transformed; quantity=GI50; unit=nM

// below: answered compounds
{"COMPOUND": "CCN(CC)c1ccc(C2CC(c3cc(OC)c(OC)c(OC)c3)=NN2)cc1 (centres undefined)", "SUBJECT OF TEST": "MCF7", "MEAS VALUE": 2.20}
{"COMPOUND": "CCN(CC)c1ccc(C2=NN(C(C)=O)C(c3cc(OC)c(OC)c(OC)c3)C2)cc1 (centres undefined)", "SUBJECT OF TEST": "MCF7", "MEAS VALUE": 2.50}
{"COMPOUND": "COc1cc(C2=NNC(c3ccc(N(C)C)cc3)C2)cc(OC)c1OC (centres undefined)", "SUBJECT OF TEST": "MCF7", "MEAS VALUE": 2.60}
{"COMPOUND": "COc1cc(C2CC(c3cccc(Br)c3)=NN2C(C)=O)cc(OC)c1OC (centres undefined)", "SUBJECT OF TEST": "MCF7", "MEAS VALUE": 2.20}
{"COMPOUND": "COc1ccc(/C=C\\c2cc(OC)c(OC)c(OC)c2)cc1O [COMBRETASTATIN A4]", "SUBJECT OF TEST": "MCF7", "MEAS VALUE": 1.60}

[ask] Param readout = log10(GI50); param system = MCF7; param query = COc1cc(C2CC(c3cccc(O)c3)=NN2C(C)=O)cc(OC)c1OC (centres undefined) ; response: value
[reply] 2.70

[ask] Repeat with COc1cc(C2CC(c3ccc(N(C)C)cc3)=NN2C(C)=O)cc(OC)c1OC (centres undefined)
[reply] 2.60

[ask] Repeat with COc1ccc(C2CC(c3cc(OC)c(OC)c(OC)c3)=NN2)cc1 (centres undefined)
[reply] 3.40

[ask] Repeat with COc1cc(C2=NN(C(C)=O)C(c3cc(OC)c(OC)c(OC)c3)C2)ccc1O (centres undefined)
[reply] 2.40

* * *

Parameter TGI: see the listing below.
System: 786-0
ASSAY NAME: Growth inhibition of human 786-0 cells after 48 hrs by SRB assay
Type: functional
RUN CONDITIONS: 786-0, 48 h, read-out: pTGI (converted)
Respond numerically; units are µM and should not be typed.

{"COMPOUND": "COc1cc(C2CC(c3cccc(O)c3)=NN2C(C)=O)cc(OC)c1OC (centres undefined)", "MEAS VALUE": 3.98}

[ask] For CCN(CC)c1ccc(C2CC(c3cc(OC)c(OC)c(OC)c3)=NN2)cc1 (centres undefined) , what is its reported TGI?
[reply] 0.501

[ask] Repeat with COc1cc(C2CC(c3ccc(N(C)C)cc3)=NN2C(C)=O)cc(OC)c1OC (centres undefined)
[reply] 63.1

[ask] Repeat with CCN(CC)c1ccc(C2=NN(C(C)=O)C(c3cc(OC)c(OC)c(OC)c3)C2)cc1 (centres undefined)
[reply] 12.6

[ask] Repeat with COc1ccc(/C=C\c2cc(OC)c(OC)c(OC)c2)cc1O [COMBRETASTATIN A4]
[reply] 25.1

* * *

Test system: NCI-H460
ASSAY NAME: Cytotoxicity against human NCI-H460 cells after 72 hrs by SRB assay
Assay type: functional, cell-based
RUN CONDITIONS: NCI-H460, 72 h
ATTRIBUTE MEASURED: pIC50
pIC50 is defined as minus the log10 of a concentration measured in mol/L.

// below: answered compounds
{"COMPOUND": "COc1cc(C2=NNC(c3ccc(N(C)C)cc3)C2)cc(OC)c1OC (stereo not given)", "pIC50": 5.96}
{"COMPOUND": "COc1cc(C2CC(c3ccc(N)cc3)=NN2C(C)=O)cc(OC)c1OC (stereo not given)", "pIC50": 5.59}
{"COMPOUND": "CCN(CC)c1ccc(C2CC(c3cc(OC)c(OC)c(OC)c3)=NN2)cc1 (stereo not given)", "pIC50": 6.52}
{"COMPOUND": "CCN(CC)c1ccc(C2=NN(C(=O)CO)C(c3cc(OC)c(OC)c(OC)c3)C2)cc1 (stereo not given)", "pIC50": 6.02}

[ask] For COc1cc(C2CC(c3ccc(Br)cc3)=NN2C(C)=O)cc(OC)c1OC (stereo not given) , what is its reported pIC50?
[reply] 5.22
